- assay-info: Acute and seven-dose toxicity in dogs
- stated-conditions: both, dog, in vivo, po, 1000 mg/kg
Counter-ions that a name gives are not always drawn.
readout-name: LD50

>>> recorded_measurement("CC1=C(CC(=O)NCc2ccccc2)c2cc(F)ccc2/C1=C\\c1ccncc1 [Compound I, hydrochloride]")
"> 1000 mg/kg"

* * *

- target-or-system: cyclooxygenase (Type 1), COX-I (Ovis aries)
- Sequence (P05979 25-600): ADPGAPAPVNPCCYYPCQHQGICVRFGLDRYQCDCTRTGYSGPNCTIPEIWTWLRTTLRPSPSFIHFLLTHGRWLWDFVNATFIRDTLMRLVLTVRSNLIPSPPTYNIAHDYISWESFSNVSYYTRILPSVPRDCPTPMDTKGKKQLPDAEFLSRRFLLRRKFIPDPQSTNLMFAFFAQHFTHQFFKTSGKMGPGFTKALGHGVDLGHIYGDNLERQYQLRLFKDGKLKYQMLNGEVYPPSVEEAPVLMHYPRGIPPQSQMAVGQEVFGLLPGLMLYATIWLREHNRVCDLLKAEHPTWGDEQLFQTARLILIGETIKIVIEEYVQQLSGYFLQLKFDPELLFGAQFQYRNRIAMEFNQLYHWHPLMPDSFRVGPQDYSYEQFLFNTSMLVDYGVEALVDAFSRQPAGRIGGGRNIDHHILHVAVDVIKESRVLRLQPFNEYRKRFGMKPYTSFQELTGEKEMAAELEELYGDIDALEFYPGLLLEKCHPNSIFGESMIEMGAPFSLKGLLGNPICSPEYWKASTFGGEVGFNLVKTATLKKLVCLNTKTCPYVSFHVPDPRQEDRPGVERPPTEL
pIC50: −log10 of the molar value.
readout-name: pIC50

>>> recorded_measurement("CC1=C(CC(=O)O)c2cc(F)ccc2/C1=C\\c1ccc(S(C)(=O)=O)cc1")
"< 2.00"
